# targetEntity: T1, Homo sapiens factor Bb protein (human, UniProt P00751 260-764)
# T1 construct: Bought from CompTech (A155); also called complement factor Bb; human factor Bb
# T1 sequence (P00751 260-764 limits assumed): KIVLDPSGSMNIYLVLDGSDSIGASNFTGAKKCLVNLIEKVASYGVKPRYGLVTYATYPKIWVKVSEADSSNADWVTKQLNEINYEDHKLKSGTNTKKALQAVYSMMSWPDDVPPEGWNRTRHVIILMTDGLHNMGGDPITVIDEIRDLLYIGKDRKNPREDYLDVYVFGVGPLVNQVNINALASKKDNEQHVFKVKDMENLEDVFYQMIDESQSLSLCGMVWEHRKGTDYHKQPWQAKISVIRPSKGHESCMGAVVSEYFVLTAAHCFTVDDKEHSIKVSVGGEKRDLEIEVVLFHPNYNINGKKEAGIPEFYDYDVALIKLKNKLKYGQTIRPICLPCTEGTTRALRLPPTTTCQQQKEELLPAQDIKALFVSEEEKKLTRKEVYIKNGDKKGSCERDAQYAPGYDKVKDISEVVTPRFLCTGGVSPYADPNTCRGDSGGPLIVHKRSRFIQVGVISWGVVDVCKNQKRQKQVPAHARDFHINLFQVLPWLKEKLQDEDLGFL
# protocolText: SPR multi-cycle kinetics; ratio against VH0/Vκ0 on the same chip
observedProperty: Relative KD

As a guide, the following entries are already answered.
binder	Relative KD
VH6/Vκ6 (antibody, V domains shown, Redesigned variant; cloned into the appropriate expression vector (IgG4v1 and kappa were used in the first round)) VH: EVQLVESGGGLVKPGGSLRLSCAASGFTFSNYAMSWVRQAPGKRLEWVATISNRGSYTYYPDSVKGRFTISRDNAKNSLYLQMNSLRAEDTALYYCARERPMDYWGQGTLVTVSS VL: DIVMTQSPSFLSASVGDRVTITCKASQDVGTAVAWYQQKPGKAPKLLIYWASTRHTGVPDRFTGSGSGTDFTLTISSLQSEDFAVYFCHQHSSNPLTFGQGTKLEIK	2.71
VH0/Vκ0 (Chimeric) (antibody, V domains shown, also called chimeric antibody) VH: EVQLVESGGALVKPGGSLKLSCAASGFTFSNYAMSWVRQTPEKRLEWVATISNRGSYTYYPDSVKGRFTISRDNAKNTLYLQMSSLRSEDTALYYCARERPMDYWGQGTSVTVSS VL: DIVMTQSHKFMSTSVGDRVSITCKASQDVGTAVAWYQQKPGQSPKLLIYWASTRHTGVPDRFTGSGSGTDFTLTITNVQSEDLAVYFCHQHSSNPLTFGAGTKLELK	1

Note: attention shifts to another entry.
Endpoint output: Relative KD of VH4/Vκ7 (antibody, V domains shown, Redesigned variant; cloned into the appropriate expression vector (IgG4v1 and kappa were used in the first round)) VH: EVQLVESGGGLVKPGGSLRLSCAASGFTFSNYAMSWVRQAPGKRLEWVATISNRGSYTYYPDSVKGRFTISRDNAKNSLYLQMSSLRSEDTALYYCARERPMDYWGQGTSVTVSS VL: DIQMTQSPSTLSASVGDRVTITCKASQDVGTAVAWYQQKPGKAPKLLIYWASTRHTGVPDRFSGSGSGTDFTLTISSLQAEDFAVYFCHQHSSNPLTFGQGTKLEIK . Value?
1.31

meta.source: patent US20210332115A1
